Could you please report measured AC50 for the items listed next?
Measurement target: Cytochrome P450 2C19 (Homo sapiens, UniProt P33261)
Sequence (P33261 whole entry): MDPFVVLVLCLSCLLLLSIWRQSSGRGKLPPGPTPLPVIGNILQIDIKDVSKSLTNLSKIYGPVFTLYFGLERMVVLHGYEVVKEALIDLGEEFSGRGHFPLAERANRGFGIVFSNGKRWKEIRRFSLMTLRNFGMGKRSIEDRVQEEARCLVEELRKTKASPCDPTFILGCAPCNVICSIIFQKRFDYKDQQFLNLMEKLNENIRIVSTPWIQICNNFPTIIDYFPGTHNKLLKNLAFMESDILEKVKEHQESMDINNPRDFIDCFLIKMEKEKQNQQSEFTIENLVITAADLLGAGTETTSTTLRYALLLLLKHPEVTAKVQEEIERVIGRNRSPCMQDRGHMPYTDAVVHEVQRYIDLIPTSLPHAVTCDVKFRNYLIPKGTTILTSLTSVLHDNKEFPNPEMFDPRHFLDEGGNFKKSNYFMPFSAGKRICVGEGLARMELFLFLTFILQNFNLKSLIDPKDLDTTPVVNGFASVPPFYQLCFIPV
Assay summary: Cytochrome panel assay with activity outcomes. Panel member name: p450-cyp2c19 Compounds with AC50 equal or less than 10 uM are considered active
Type: functional
Experimental parameters: read-out: AC50

Please look up its AC50: Cc1cc(N)c2ccccc2[n+]1CCCCCCCCCCCCCC[n+]1c(C)cc(N)c2ccccc21
31.6 µM (inconclusive)

Try CCOC(=O)C(C(=O)NCc1ccc(C)cc1)c1ncc(C(F)(F)F)cc1Cl (stereo not given) next.
11.2 µM (inconclusive)

Same thing, different molecule: CCCc1nnc(NC(=O)CCC(=O)NCc2ccccc2OC)s1
11.2 µM (inconclusive)

Would you mind doing CC1=C(C(=O)OCc2ccccc2)C(c2ccc3ccccc3c2)NC(=O)N1CCCCCC(=O)O (stereo not given) as well?
39.8 µM (inconclusive)

Cool, now COC(=O)c1ccccc1NC(=O)C(CCS(C)(=O)=O)NC(C)=O (stereo not given)
39.8 µM (inconclusive)

Entry to check: Cc1ccc(/C=N\Nc2nc3cc(Cl)ccc3[nH]2)o1
28.2 µM (inconclusive)

Cool, now CC1CCOC2(O1)C(=O)N(CN1CCN(c3ccccc3F)CC1)c1ccccc12 (stereo not given)
11.2 µM (inconclusive)

Subsequent entry: CCc1nc2c(c(SC)nn2-c2ccccc2)c(N)c1C(=O)OC
25.1 µM (inconclusive)

Now this one: O=c1c2ccccc2nc2n1CC/C2=C\c1ccccc1[N+](=O)[O-]
3.98 µM (inconclusive)

And Oc1cc(O)c2c(c1)O[C@@H](c1ccc(O)c(O)c1)[C@H](O[C@@]1(c3cc(O)c(O)c(O)c3)Oc3cc(O)cc(O)c3[C@H](O)[C@@H]1O)C2 ?
3.98 µM (inconclusive)

// provenance: ChEMBL document CHEMBL1201862
